This collection of values is drawn from patent US20220380459A1.

For each record, write down the corresponding log10 of koff.
- testedTarget: T1, deglycosylated V domain of human CD33 (human, UniProt P20138 18-139, limits assumed, N-glycans removed by PNGase)
- T1 construct: V domain deglycosylated by PNGase before testing; also called deglycosylated V CD33
- testDetails: SPR, Fab captured, 37C;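 also: biacore 8K surface plasmon resonance with Fabs held on an amine-coupled anti-Fab antibody surface, soluble monomeric CD33 domain injected as analyte, double-referenced 1:1 binding fit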
Reminder: these figures are log10 of reported koff, in s⁻¹ before transformation.

Entry ADI-11807 Fab (Fab, V domains shown, Fab fragment; also called Ab5; I07) VH: EVQLVESGGGLVQPGGSLRLSCAASGFTFGSYWMSWVRQAPGKGLEWVATIKQDGSEKSYVDSVKGRFTISRDNAKNSLYLQMNSLRAEDTAVYYCARPLNAGELDVWGQGTMVTVSS VL: DIQMTQSPSTLSASVGDRVTITCRASQSISSWLAWYQQKPGKAPKLLIYEASSLESGVPSRFSGSGSGTEFTLTISSLQPDDFATYYCQQSQSYPPITFGGGTKVEIK — recorded log10 of koff = -3.13

Entry ADI-11830 Fab (Fab, V domains shown, Fab fragment; also called Ab9) VH: EVQLVESGGGLVQPGGSLRLSCAASGFTFSSYWMSWVRQAPGKGLEWVANINTDGSEVYYVDSVKGRFTISRDNAKNSLYLQMNSLRAEDTAVYYCARDVGPGIAYQGHFDYWGQGTLVTVSS VL: DIQMTQSPSSLSASVGDRVTITCRASQVIYSYLNWYQQKPGKAPKLLIYAASSLKSGVPSRFSGSGSGTDFTLTISSLQPEDFATYYCQQVYDTPLTFGGGTKVEIK — recorded log10 of koff = -1.57

Entry ADI-11819 Fab (Fab, V domains shown, Fab fragment; also called Ab8) VH: EVQLVESGGGLVKPGGSLRLSCAASGFTFSSYAMSWVRQAPGKGLEWVSSISSSSEGIYYADSVKGRFTISRDNAKNSLYLQMNSLRAEDTAVYYCAREGGPYYDSSGYFVYYGMDVWGQGTTVTVSS VL: DIQMTQSPSTLSASVGDRVTITCRASNSISSWLAWYQQKPGKAPKLLIYEASSTKSGVPSRFSGSGSGTEFTLTISSLQPDDFATYYCQQYDDLPTFGGGTKVEIK — recorded log10 of koff = -2.99

Entry ADI-11809 Fab (Fab, V domains shown, Fab fragment; also called Ab6) VH: EVQLVESGGGLVQPGGSLRLSCAASGFTFPSYWMSWVRQAPGKGLEWVATIKRDGSEKGYVDSVKGRFTISRDNAKNSLYLQMNSLRAEDTAVYYCARPLNAGELDVWGQGTMVTVSS VL: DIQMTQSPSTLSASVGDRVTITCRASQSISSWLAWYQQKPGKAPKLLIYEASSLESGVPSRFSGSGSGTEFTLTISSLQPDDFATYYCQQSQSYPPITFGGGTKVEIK — recorded log10 of koff = -3.15

Entry ADI-11839 Fab (Fab, V domains shown, Fab fragment; also called Ab28) VH: QVQLVQSGAEVKKPGASVKVSCKASGYTFSNYYMHWVRQAPGQGLEWMGWINPFSGGTRYAQKFQGRVTMTRDTSTSTVYMELSSLRSEDTAVYYCARDVGSSAYYYMDVWGKGTTVTVSS VL: DIQMTQSPSSVSASVGDRVTITCEASKGISSWLAWYQQKPGKAPKLLIYAASDLQSGVPSRFSGSGSGTDFTLTISSLQPEDFATYYCQQAFLFPPTFGGGTKVEIK — recorded log10 of koff = -0.94
